System: Chromobox protein homolog 1 (Homo sapiens) (UniProt P83916)
Sequence (P83916 whole entry, looked up): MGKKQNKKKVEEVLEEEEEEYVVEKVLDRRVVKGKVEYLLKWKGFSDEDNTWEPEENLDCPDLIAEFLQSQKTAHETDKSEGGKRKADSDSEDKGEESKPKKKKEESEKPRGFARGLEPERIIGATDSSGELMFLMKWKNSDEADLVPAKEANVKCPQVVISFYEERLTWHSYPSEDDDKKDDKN
Experimental Details: qHTS Validation Assay for Inhibitors of HP1-beta Chromodomain Interactions with Methylated Histone Tails (AID 488953); further: nearly all actives have a fitted effect of over 50% in size
Measurement Parameters: HP1-beta chromodomain / methylated histone peptide binding assay; series mostly up to 114 µM
Results filed as inconclusive are left out. The source made the active and inactive calls. The call rests on the fitted dose curve; in most records, active means well fitted inhibition curve with a large enough effect; inconclusive means small, poorly fitted or top-dose-only effect; inactive means no such curve, though single readings can be large or run the other way.
Outcome field: choose from active, inactive

molecule=N#C/C(=C\c1ccc(O)c(O)c1)C(=O)NCc1ccccc1 discrete_label=active
molecule=CCCN(CC1CC1)c1nc(C)nc(Nc2c(Cl)cc(Cl)cc2Cl)c1Cl discrete_label=inactive
molecule="COc1cc2nc(N3CCN(C(=O)OCc4ccccc4)C(C(=O)NC(C)(C)C)C3)nc(N)c2cc1OC (configuration not stated)" discrete_label=inactive
molecule="NCC1OC(O[C@H]2[C@H](O)[C@@H](OC3C(O)C(N)CC(N)C3OC3OC(CO)C(O)C(O)C3N)O[C@@H]2CO)C(N)C(O)C1O (some centres not stated)" discrete_label=inactive

Req: Outcome? O=C(Nc1ccccc1)c1cc([N+](=O)[O-])ccc1Cl
Resp: inactive

Req: Outcome? CCc1c(C(=O)NCCc2ccc(N3CCCCC3)cc2)[nH]c2ccc(Cl)cc12
Resp: active

Req: Outcome? Cc1ccc(O)c(N=Nc2ccccc2)n1
Resp: active

Req: Outcome? NS(=O)(=O)C#Cc1ccccc1
Resp: inactive

Req: Outcome? N=C(N)SCCc1ccc(CCSC(=N)N)cc1
Resp: inactive

Req: Outcome? O=C(O)c1cc([N+](=O)[O-])ccc1NCCCc1ccccc1
Resp: inactive

Req: Outcome? CC(=O)/C=C1\C(=O)N(C)c2ccccc21
Resp: active

Req: Outcome? C=C[C@@H]1CN2CC[C@@H]1C[C@H]2[C@H](O)c1ccnc2ccc(OC)cc12
Resp: inactive

###

Tested on: OV90
Experimental Details: Primary qHTS to identify gynecologic anti-cancer compounds using libraries of approved drugs and bioactive compounds (AID 1345084); further: nearly all actives have a fitted effect of over 55% in size
Measurement Parameters: Gynecologic cancer cell panel viability, ATPlite luminescence, 48 h; series mostly up to 57.5 µM
From the text: National Center for Advancing Translational Sciences [NCATS] Assay Overview: Chemotherapeutic drug responses vary from cancer to cancer and from patient to patient. […] ATPlite is a luminescence based assay reliant on the conversion of a luciferase substrate to light in the presence of ATP. As a cytotoxic compound will suppress growth and decrease the number of cells, the concentration of ATP will decrease, and less light signal will be detected in the well. […]
Inconclusive results are not listed. Activity calls are given as the source filed them. The call rests on the fitted dose curve; in most records, active means well fitted cell-killing curve with a large enough effect; inconclusive means small, poorly fitted or top-dose-only effect, or effect the other way; inactive means flat fitted curve, though single readings scatter.
Outcome field: choose from yes (active), no (inactive)

molecule=Cc1ccc(C(=O)c2ccc(CC(=O)O)n2C)cc1 discrete_label=no

Now for another entry.
Req: Outcome? CCCCCCCCCCCCCCCCCC(=O)O
Resp: no

###

System: PC26
Experimental Details: qHTS profiling for inhibitors of Plasmodium falciparum proliferation (AID 504749); further: nearly all actives have a fitted effect of over 60% in size
Measurement Parameters: P. falciparum in erythrocytes, SYBR Green DNA, 72 h; series mostly up to 28.7 µM
Results filed as inconclusive are left out. Active and inactive are the calls of the source. Calls come from the whole dose curve; as a rule, active = well fitted inhibition curve with a large enough effect; inconclusive = small, poorly fitted or top-dose-only effect; inactive = flat fitted curve, though single readings scatter.
Outcome field: choose from active, inactive

Example results:
compound=O=C(/C=C/c1ccccc1)NCCO discrete_label=inactive
compound=Cc1ccc(C(=O)c2ccc(CC(=O)O)n2C)cc1 discrete_label=inactive
compound=CC1(C)S[C@@H]2[C@H](NC(=O)[C@H](NC(=O)N3CCN(S(C)(=O)=O)C3=O)c3ccccc3)C(=O)N2[C@H]1C(=O)O discrete_label=inactive

Now for another entry.
Req: Outcome? CCCCCCOc1ccccc1C(N)=O
Resp: inactive

###

Experimental Details: qHTS for differential inhibitors of proliferation of Plasmodium falciparum line GB4 (AID 1816);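 further: parasite growth measured after 72 h incubation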
Measurement Parameters: Plasmodium falciparum GB4 proliferation inhibition; series mostly up to 28.7 µM
Results filed as inconclusive are left out. Activity calls are given as the source filed them. The call rests on the fitted dose curve; in most records, active means well fitted curve in the direction sought with a large enough effect; inconclusive means small, poorly fitted or top-dose-only effect, or another doubt; inactive means no such curve, though single readings can be large or run the other way.
Outcome field: choose from active, inactive

compound=CCCCN1CCC(n2c(=O)[nH]c3ccccc32)CC1 discrete_label=inactive
compound="CO/N=C(\\C(=O)N[C@@H]1C(=O)N2C(C(=O)O)=C(COC(C)=O)CS[C@H]12)c1csc(N)n1 (stereo in doubt)" discrete_label=inactive

Req: Outcome? S=C(S)OC1CC2CC1C1CCCC21 (centres undefined)
Resp: inactive

Req: Outcome? N#C/C(=C\c1c[nH]c2ccccc12)C(=O)c1ccc(O)c(O)c1
Resp: active

Req: Outcome? Cc1ccc(O)c(N=Nc2ccccc2)n1
Resp: active

###

Tested on: MKL-1
Experimental Details: qHTS assay to identify novel small-molecules to repurpose for Merkel cell carcinoma treatment (AID 1296009); further: nearly all actives have a fitted effect of over 60% in size
Measurement Parameters: MCC and control cell lines, CellTiter-Glo viability, 72 h; series mostly up to 46 µM
Inconclusive results are not listed. Active and inactive are the calls of the source. Calls come from the whole dose curve; as a rule, active = well fitted inhibition curve with a large enough effect; inconclusive = small, poorly fitted or top-dose-only effect; inactive = flat fitted curve, though single readings scatter.
Outcome field: choose from t (active), f (inactive)

compound=COc1ccc(-c2cc(=S)ss2)cc1 discrete_label=t
compound=COc1cccc2c1C(=O)c1c(O)c3c(c(O)c1C2=O)C[C@@](O)(C(=O)CO)C[C@@H]3O[C@H]1C[C@H](N)[C@H](O[C@@H]2CCCCO2)[C@H](C)O1 discrete_label=t
compound=c1ccc2sc(SN3CCOCC3)nc2c1 discrete_label=f
compound=Cc1c(N)c(=O)n(-c2ccccc2)n1C discrete_label=f
compound="CC(C(=O)O)c1ccc2c(c1)[nH]c1ccc(Cl)cc12 (stereo not given)" discrete_label=f
compound=CCCCCCCCCCCCCCCCCC(=O)O discrete_label=f
compound=CCCCCCOc1ccccc1C(N)=O discrete_label=f
compound="C[N+]1(C)[C@@H]2CC(OC(=O)[C@H](CO)c3ccccc3)C[C@H]1[C@@H]1O[C@@H]12 (stereo not given in full)" discrete_label=f
compound=CC(=O)c1ccc(OCC(=O)N2CCCCC2)cc1 discrete_label=f
compound=Cc1[nH]cnc1CN1CCc2c(c3ccccc3n2C)C1=O discrete_label=f

Now for another entry.
Req: Outcome? CC(C(=O)O)c1ccc(C(=O)c2ccccc2)s1 (stereo not given)
Resp: f

###

System: Zika virus NS2B-NS3 protease (unlinked)
Experimental Details: Optimization of GU AMC qHTS for Zika virus inhibitors: Unlinked NS2B-NS3 protease assay (AID 1347151); further: nearly all actives have a fitted effect of over 80% in size
Measurement Parameters: recombinant ZIKV NS2B-NS3 protease, fluorogenic AMC substrate; series mostly up to 52.5 µM
Text: Avindra Nath, Ph.D., National Institute of Neurological Disorders and Stroke (NINDS), Bethesda, MD Radhakrishnan Padmanabhan, Ph.D., Georgetown University (GU), Washington D.C. Zika Virus causes congenital defects, including microcephaly and is associated with Guillain-Barre syndrome, eningoencephalitis and myelitis in infected adult. […]
Results filed as inconclusive are left out. Activity calls are given as the source filed them. Calls follow the shape of the dose curve; as a rule, active = well fitted inhibition curve with a large enough effect; inconclusive = small, poorly fitted or top-dose-only effect; inactive = no such curve, though single readings can be large or run the other way.
Outcome field: choose from active, inactive

Req: Outcome? COCCOc1cc2nc[nH]c(=O)c2cc1OCCOC
Resp: inactive

Req: Outcome? CN1C2CC(OC(=O)[C@H](CO)c3ccccc3)CC1C1OC12 (some centres not stated)
Resp: inactive

Req: Outcome? O=C(Nc1ccc2[nH]ncc2c1)C1CCC1
Resp: inactive

###

Tested on: SC27B
Experimental Details: qHTS profiling for inhibitors of Plasmodium falciparum proliferation (AID 504749); further: nearly all actives have a fitted effect of over 60% in size
Measurement Parameters: P. falciparum in erythrocytes, SYBR Green DNA, 72 h; series mostly up to 28.7 µM
Results filed as inconclusive are left out. Activity calls are given as the source filed them. Calls follow the shape of the dose curve; as a rule, active = well fitted inhibition curve with a large enough effect; inconclusive = small, poorly fitted or top-dose-only effect; inactive = flat fitted curve, though single readings scatter.
Endpoint Label: outcome

compound=Cc1nc2ccccc2n1Cc1ccc(Cl)cc1 system=SC27B result=inactive
compound="CN1[C@@H]2CC[C@H]1CC(OC(=O)C(CO)c1ccccc1)C2 (stereo partly specified)" system=SC27B result=inactive
compound=O=C(Nc1ccc(C(=O)O)c(O)c1)c1ccccc1 system=SC27B result=inactive
compound="CC(C(=O)O)c1ccc2c(c1)[nH]c1ccc(Cl)cc12 (stereo unspecified)" system=SC27B result=inactive

Req: Query the reported outcome for SC27B; item: O=C(/C=C/c1ccccc1)NCCO
Resp: inactive

Req: Query the reported outcome for SC27B; item: COc1cc(/C=C/C(=O)N2CCN(CC(=O)N3CCCC3)CC2)cc(OC)c1OC
Resp: inactive

Req: Query the reported outcome for SC27B; item: O=C(O)c1ccccc1Nc1cccc(C(F)(F)F)c1
Resp: inactive

Req: Query the reported outcome for SC27B; item: CN1[C@@H]2CC[C@H]1CC(OC(c1ccccc1)c1ccccc1)C2 (stereo partly specified)
Resp: inactive

Req: Query the reported outcome for SC27B; item: O=C(O)Cc1ccc(-c2ccccc2)cc1
Resp: inactive

Req: Query the reported outcome for SC27B; item: C=CCCCCCCCCC(=O)O
Resp: inactive

Req: Query the reported outcome for SC27B; item: CCOC(=O)c1ccccc1O
Resp: inactive

Req: Query the reported outcome for SC27B; item: Cc1ccc(O)c(-n2nc3ccccc3n2)c1
Resp: inactive

Req: Query the reported outcome for SC27B; item: c1ccc2sc(SN3CCOCC3)nc2c1
Resp: inactive

Req: Query the reported outcome for SC27B; item: Cc1ccccc1CNc1ncnc2c1ncn2C1OC(CO)C(O)C1O (stereo unspecified)
Resp: inactive

Req: Query the reported outcome for SC27B; item: Nc1ccc(C(=O)O)c(O)c1
Resp: inactive

Req: Query the reported outcome for SC27B; item: CCCOC(=O)c1ccc(O)cc1
Resp: inactive

Req: Query the reported outcome for SC27B; item: Cc1ccc(C(=O)c2ccc(CC(=O)O)n2C)cc1
Resp: inactive

Req: Query the reported outcome for SC27B; item: O=C(CCN1CCN(CCO)CC1)N1c2ccccc2Sc2ccc(C(F)(F)F)cc21
Resp: inactive

Req: Query the reported outcome for SC27B; item: COc1cc(CNC(=O)CCCC/C=C/C(C)C)ccc1O
Resp: inactive

Req: Query the reported outcome for SC27B; item: CCCCCC[C@@H](O)C/C=C\CCCCCCCC(=O)O
Resp: inactive

Req: Query the reported outcome for SC27B; item: CCCCCCOc1ccccc1C(N)=O
Resp: inactive
